Measured thermal melting temperature, listed per entry.
biological target: HLA-A*02:01; experiment: thermal melting temperature (Tm) of peptide-HLA complex; higher = more thermostable pHLA complex; settings: C1R-A*02:01;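 note: lysates heated 10 min at 37–73 °C, complexes pulled down with pan-HLA I antibody, peptide signal by DIA-MS relative to 37 °C, Tm where half the complex is unfolded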
Over roughly 1,100 sequences, “thermal melting temperature (Tm) of peptide-HLA complex” has its median near 58; the lowest 2% begin near 42. The sample as a whole holds a higher share of the lowest values than the screen did.

# ITEM SEQUENCE, thermal melting temperature
measured = [
    ("NVIERLQEA", "57.2 °C"),
    ("KLNATNIEL", "51.5 °C"),
    ("FILANEHNV", "40.8 °C"),
    ("YLTAFTKNL", "60.8 °C"),
    ("KMDEVLYSI", "59 °C"),
    ("RVISELQEA", "40.7 °C"),
    ("GLVDKLQAL", "55.6 °C"),
    ("VTTDIQVKV", "47.3 °C"),
]
